Entry source: PubChem BioAssay (NCATS)

target: Luciferin 4-monooxygenase (Photinus pyralis); test: Primary firefly luciferase (FLuc) qHTS assay for identification of artifact compounds. (AID 1845220); details: purified firefly luciferase, luminescence, 5 min; series mostly up to 54.1 µM; also: nearly all actives have a fitted effect of over 60% in size
Activity calls are given as the source filed them. Calls follow the shape of the dose curve; as a rule, active = well fitted inhibition curve with a large enough effect; inconclusive = small, poorly fitted or top-dose-only effect; inactive = flat fitted curve, though single readings scatter.
Quantity kind: activity change, negative = inhibition

[[record]]
molecule = "Cn1nc(C(C)(C)C)cc1C(=O)N[C@@H](Cc1cccc(Cl)c1)C(=O)NCC#N"
target = "Luciferin 4-monooxygenase (Photinus pyralis)"
quantity_kind = "activity change, negative = inhibition"
result = "inactive"

[[record]]
molecule = "Nc1nc(NC2CC2)cc(-c2cccc(Cl)c2Cl)n1"
target = "Luciferin 4-monooxygenase (Photinus pyralis)"
quantity_kind = "activity change, negative = inhibition"
result = "inactive"

[[record]]
molecule = "CC(=O)C=C=C1C(C)(C)CC(O)CC1(C)O[C@@H]1O[C@H](CO[C@H]2OC[C@](O)(CO)[C@H]2O)[C@@H](O)[C@H](O)[C@H]1O (some centres not stated)"
target = "Luciferin 4-monooxygenase (Photinus pyralis)"
quantity_kind = "activity change, negative = inhibition"
result = "inactive"

[[record]]
molecule = "O=[N+]([O-])c1ccc(Oc2ccc3c(c2)CCC(c2ccccc2)O3)nc1 (configuration not stated)"
target = "Luciferin 4-monooxygenase (Photinus pyralis)"
quantity_kind = "activity change, negative = inhibition"
result = "inactive"

[[record]]
molecule = "Cc1c[nH]c2ncnc(N3CCC(CN)(C(=O)Nc4cccc(OC(=O)N(C)C)c4)CC3)c12"
target = "Luciferin 4-monooxygenase (Photinus pyralis)"
quantity_kind = "activity change, negative = inhibition"
result = "inactive"

[[record]]
molecule = "C/C=C/C1=CC2=C(CO1)C(=O)C(C)(OC(=O)c1c(C)cc(O)cc1OC)C(O)C2 (configuration not stated)"
target = "Luciferin 4-monooxygenase (Photinus pyralis)"
quantity_kind = "activity change, negative = inhibition"
result = "inactive"

[[record]]
molecule = "Cc1ccc(NC(=O)C(C)C)cc1C1CCN(Cc2ccc(Oc3ccc(F)c(F)c3)cc2)CC1"
target = "Luciferin 4-monooxygenase (Photinus pyralis)"
quantity_kind = "activity change, negative = inhibition"
result = "inactive"

[[record]]
molecule = "CCCC1(CCC)CCC2(CCN(CCCN(CC)CC)C2)CC1"
target = "Luciferin 4-monooxygenase (Photinus pyralis)"
quantity_kind = "activity change, negative = inhibition"
result = "inactive"

[[record]]
molecule = "C=C1C(=O)OC2C3=C(C)C(=O)CC3C(C)CC(O)C12 (configuration not stated)"
target = "Luciferin 4-monooxygenase (Photinus pyralis)"
quantity_kind = "activity change, negative = inhibition"
result = "inactive"

[[record]]
molecule = "C=C1CCC2[C@](C)(CCC[C@@]2(C)C=O)[C@H]1CC/C(C)=C/CO (some centres not stated)"
target = "Luciferin 4-monooxygenase (Photinus pyralis)"
quantity_kind = "activity change, negative = inhibition"
result = "inactive"

[[record]]
molecule = "CCc1cccc(CC)c1-n1c(C=C(C)C)c(C(=O)N2CCNCC2)cc(-c2nc(-c3ccc(C(F)(F)F)cc3)cs2)c1=O"
target = "Luciferin 4-monooxygenase (Photinus pyralis)"
quantity_kind = "activity change, negative = inhibition"
result = "inactive"

[[record]]
molecule = "C=C1C(=O)O[C@@H]2C[C@H](C)[C@@H]3CC(=O)[C@H](O)[C@@]3(C)C[C@H]12"
target = "Luciferin 4-monooxygenase (Photinus pyralis)"
quantity_kind = "activity change, negative = inhibition"
result = "inactive"

[[record]]
molecule = "CC(O)(C(=O)O)C1CCC2(C)C1CCC1(C)C2CCC2C3(C)CCC(O)C(C)(COC4OC(CO)C(O)C(O)C4O)C3CCC21C (configuration not stated)"
target = "Luciferin 4-monooxygenase (Photinus pyralis)"
quantity_kind = "activity change, negative = inhibition"
result = "inactive"

[[record]]
molecule = "C=C[C@@]1(C)C=C2C(=O)C(O)=C3[C@](C)(C(=O)O)CC[C@@H]4C[C@]34[C@]2(O)C(=O)C1"
target = "Luciferin 4-monooxygenase (Photinus pyralis)"
quantity_kind = "activity change, negative = inhibition"
result = "inactive"

[[record]]
molecule = "O=C(NCCCc1ccccc1)C1CCC(CNS(=O)(=O)c2cccc3nsnc23)CC1 (configuration not stated)"
target = "Luciferin 4-monooxygenase (Photinus pyralis)"
quantity_kind = "activity change, negative = inhibition"
result = "inactive"

[[record]]
molecule = "COc1cccc(CN(C(=O)CC(C)(C)C)[C@H]2C[C@H](C(=O)N3CCNCC3)N(Cc3ccc4c(c3)OCO4)C2)c1"
target = "Luciferin 4-monooxygenase (Photinus pyralis)"
quantity_kind = "activity change, negative = inhibition"
result = "inactive"

[[record]]
molecule = "C=C1C(=O)O[C@@H]2C[C@@]3(C)C[C@@H](O)C[C@H](C)C3=C[C@H]12"
target = "Luciferin 4-monooxygenase (Photinus pyralis)"
quantity_kind = "activity change, negative = inhibition"
result = "inactive"

[[record]]
molecule = "Cc1nc(C#Cc2ccnc(Cl)c2)c(C)n1-c1ccc(F)cc1"
target = "Luciferin 4-monooxygenase (Photinus pyralis)"
quantity_kind = "activity change, negative = inhibition"
result = "inactive"

[[record]]
molecule = "C=CC1(C)CC(O)C(C(=C)C(=O)OC)C(O)C1C(=C)CO (configuration not stated)"
target = "Luciferin 4-monooxygenase (Photinus pyralis)"
quantity_kind = "activity change, negative = inhibition"
result = "inactive"

[[record]]
molecule = "O=C(c1ccccc1)c1c(O)cc(O)cc1O[C@@H]1O[C@H](CO)[C@@H](O)[C@H](O)[C@H]1O"
target = "Luciferin 4-monooxygenase (Photinus pyralis)"
quantity_kind = "activity change, negative = inhibition"
result = "inactive"

[[record]]
molecule = "O=C(NCCN1CCN(c2cccc3c2OCCO3)CC1)c1ccc(F)cc1"
target = "Luciferin 4-monooxygenase (Photinus pyralis)"
quantity_kind = "activity change, negative = inhibition"
result = "inactive"

[[record]]
molecule = "C/C=C(\\C)C(=O)O[C@H]1C=C(CO)C(=O)[C@H](OC(C)=O)[C@H]1C(C)C"
target = "Luciferin 4-monooxygenase (Photinus pyralis)"
quantity_kind = "activity change, negative = inhibition"
result = "inactive"

[[record]]
molecule = "CC(C)C(C)C(O)C1CC23CC(=O)C4(O)C(=C2CCC3C1C)C=CC1(O)CC(O)CCC14C (configuration not stated)"
target = "Luciferin 4-monooxygenase (Photinus pyralis)"
quantity_kind = "activity change, negative = inhibition"
result = "inactive"

[[record]]
molecule = "COc1cc2nc(N3CCN(C(=O)c4ccco4)C4CCCCC43)nc(N)c2cc1OC (configuration not stated)"
target = "Luciferin 4-monooxygenase (Photinus pyralis)"
quantity_kind = "activity change, negative = inhibition"
result = "inactive"

[[record]]
molecule = "COc1ccc2cc(-c3cc(-c4cc(Cl)cc(Cl)c4)nn3C(C)c3ccc(C(=O)NCCC(=O)O)cc3)ccc2c1 (configuration not stated)"
target = "Luciferin 4-monooxygenase (Photinus pyralis)"
quantity_kind = "activity change, negative = inhibition"
result = "inactive"

[[record]]
molecule = "O=C1C[C@]23C=CCN4CCC5c6cc7c(cc6N1[C@@]5(CC2)C43)OCO7 (some centres not stated)"
target = "Luciferin 4-monooxygenase (Photinus pyralis)"
quantity_kind = "activity change, negative = inhibition"
result = "inactive"

[[record]]
molecule = "O=C(c1cc(Cc2n[nH]c(=O)c3ccccc23)ccc1F)N1CCCNCC1"
target = "Luciferin 4-monooxygenase (Photinus pyralis)"
quantity_kind = "activity change, negative = inhibition"
result = "inactive"

[[record]]
molecule = "Fc1ccc(N2CCN(CCC3OCCc4ccccc43)CC2)cc1 (configuration not stated)"
target = "Luciferin 4-monooxygenase (Photinus pyralis)"
quantity_kind = "activity change, negative = inhibition"
result = "inactive"

[[record]]
molecule = "C=C1CC[C@@H]2[C@](C)(CO)[C@H](O)CC[C@@]2(C)[C@@H]1/C=C/C1=CCOC1=O"
target = "Luciferin 4-monooxygenase (Photinus pyralis)"
quantity_kind = "activity change, negative = inhibition"
result = "inactive"

[[record]]
molecule = "Cc1nc(C#Cc2ccnc(Cl)c2)c(C)n1-c1ccc(OC(F)(F)F)cc1"
target = "Luciferin 4-monooxygenase (Photinus pyralis)"
quantity_kind = "activity change, negative = inhibition"
result = "inactive"

[[record]]
molecule = "COc1ccccc1N1CCN(c2ncnc3n[nH]c(Br)c23)CC1"
target = "Luciferin 4-monooxygenase (Photinus pyralis)"
quantity_kind = "activity change, negative = inhibition"
result = "inactive"

[[record]]
molecule = "CCCn1ncc(CN2CCCC(C(=O)c3cccc(OC(C)C)c3)C2)c1C (configuration not stated)"
target = "Luciferin 4-monooxygenase (Photinus pyralis)"
quantity_kind = "activity change, negative = inhibition"
result = "inactive"

[[record]]
molecule = "C=C(C)[C@@H]1CC=C(COC(=O)NC(=O)c2ncn3c(=O)n(C)nnc23)CC1"
target = "Luciferin 4-monooxygenase (Photinus pyralis)"
quantity_kind = "activity change, negative = inhibition"
result = "inactive"

[[record]]
molecule = "O=C(O)c1ccc(S(=O)(=O)N(Cc2ccc(OC(F)(F)F)cc2)c2ncc(C(F)(F)F)cc2Cl)cc1"
target = "Luciferin 4-monooxygenase (Photinus pyralis)"
quantity_kind = "activity change, negative = inhibition"
result = "inactive"

[[record]]
molecule = "COc1cc(F)c(F)c(Nc2ccc(I)cc2F)c1NS(=O)(=O)C1(CC(O)CO)CC1 (configuration not stated)"
target = "Luciferin 4-monooxygenase (Photinus pyralis)"
quantity_kind = "activity change, negative = inhibition"
result = "inactive"

[[record]]
molecule = "O=C(Nc1ccc(C(O)(C(F)(F)F)C(F)(F)F)cc1)c1ccc(C(F)(F)F)cc1"
target = "Luciferin 4-monooxygenase (Photinus pyralis)"
quantity_kind = "activity change, negative = inhibition"
result = "inactive"

[[record]]
molecule = "CCCc1cc(C)[nH]c(=O)c1CNC(=O)c1cc(-c2ccnc(N3CCN(C)CC3)c2)cc2c1cnn2C(C)C"
target = "Luciferin 4-monooxygenase (Photinus pyralis)"
quantity_kind = "activity change, negative = inhibition"
result = "inactive"

